- Test system: UACC-257
- EXPERIMENTAL DETAILS: NCI tumour cell line growth inhibition, 48 h
Active and inactive are the calls of the source. Rule as the data show it: active = GI50 up to about 1.1 µM and inactive = higher.
Valid outcomes are listed here; reply with one: Yes = active, No = inactive

Consider the following illustrative entries.
[[record]]
molecule = "CC(C(=O)O)c1ccc(-c2ccccc2)c(F)c1 (centres undefined)"
category_label = "No"

[[record]]
molecule = "Cc1ccc(S(=O)(=O)N/N=C(/c2nc3ccc([N+](=O)[O-])cc3nc2O)C(O)c2ccc(C(O)/C(=N\\NS(=O)(=O)c3ccc(C)cc3)c3nc4ccc([N+](=O)[O-])cc4nc3O)cc2)cc1 (centres undefined)"
category_label = "No"

[[record]]
molecule = "COc1ccccc1NC(=O)C1=C(C)NC(C)=C(C(=O)Nc2ccccc2OC)C1c1ccccc1F"
category_label = "No"


Per the assay record, what outcome was assigned to COc1ccc2nc3cc(Cl)ccc3c(NCCNCCCNC(=O)c3cc(-c4ccccc4)nc4ccccc34)c2c1 ?
No

Per the assay record, what outcome was assigned to COc1ccc(CC2C(=O)NC(C)C(=O)N(C)C3C(=O)N(C)C(Cc4ccc(O)c(c4)Oc4ccc(cc4)C3O)C(=O)NC(C)C(=O)NC(C)C(=O)N2C)cc1.COc1ccc(CC2C(=O)NC(C)C(=O)N(C)C3Cc4ccc(cc4)Oc4cc(ccc4O)CC(C(=O)NC(C)C(=O)NC(C)C(=O)N2C)N(C)C3=O)cc1 (centres undefined) ?
Yes

Per the assay record, what outcome was assigned to Cn1cc(C2(C)CC(C)(C)c3c2n(C)c2ccccc32)c2ccccc21 (centres undefined) ?
No

Per the assay record, what outcome was assigned to CC(C)C1(O)C(=O)N(c2c(F)c(F)c(F)c(F)c2F)C(=S)N1CCSc1ccccc1 (centres undefined) ?
No

---

Listing of entries alongside the reported GI50.
- Tested on: NCI-H23
- EXPERIMENTAL DETAILS: NCI tumour cell line growth inhibition, 48 h
Calls of active or inactive are those of the source. Cut-off read from the data, not from the text of the source: active = GI50 up to about 1.1 µM and inactive = higher.

These solved cases illustrate the format of a correct answer.
[[record]]
compound = "OC(C/C=N/N=C/CC(O)(C(F)(F)Cl)C(F)(F)Cl)(C(F)(F)Cl)C(F)(F)Cl"
experimental_value = "> 10 µM (inactive)"

[[record]]
compound = "CN1c2ccccc2N(C(=O)c2ccc([N+](=O)[O-])cc2)C(CC(=O)O)c2cccn21 (stereo unspecified)"
experimental_value = "> 100 µM (inactive)"


Consider the compound shown here: COC(=O)[C@]12C3=C(O)C(=O)C[C@H]1OC[C@H]2C=CC3 What is its recorded GI50?
> 100 µM (inactive)

Consider the compound shown here: COc1cc(/C=C/C(=O)CC(=O)/C=C/c2ccc(O)c(OC)c2)ccc1O [CURCUMIN] What is its recorded GI50?
5.6 µM (inactive)

Consider the compound shown here: Cc1ccc2nc(NC(=O)/C(Cc3nc4ccc(Cl)cc4nc3O)=N\NC(C)(C)C)sc2c1 What is its recorded GI50?
> 100 µM (inactive)

Consider the compound shown here: O=C(NP(=O)(N1CC1)N1CC1)c1cc(I)ccc1I [DIIODBENZOTEPH] What is its recorded GI50?
10.9 µM (inactive)

---

- System: RPMI-8226
- EXPERIMENTAL DETAILS: NCI tumour cell line growth inhibition, 48 h
The source made the active and inactive calls. Cut-off read from the data, not from the text of the source: active = GI50 up to about 1.1 µM and inactive = higher.
Valid outcomes are listed here; reply with one: active, inactive

Consider the following illustrative entries.
[[record]]
compound = "COc1ccc(CC2C(=O)NC(C)C(=O)N(C)C3C(=O)N(C)C(Cc4ccc(O)c(c4)Oc4ccc(cc4)C3O)C(=O)NC(C)C(=O)NC(C)C(=O)N2C)cc1.COc1ccc(CC2C(=O)NC(C)C(=O)N(C)C3Cc4ccc(cc4)Oc4cc(ccc4O)CC(C(=O)NC(C)C(=O)NC(C)C(=O)N2C)N(C)C3=O)cc1 (centres undefined)"
assayed_target = "RPMI-8226"
category_label = "active"

[[record]]
compound = "O=c1sc(Nc2ccc3ccccc3c2Cl)nc2ccccc12"
assayed_target = "RPMI-8226"
category_label = "inactive"

[[record]]
compound = "COc1ccc(Nc2nc3ccccc3nc2C(=O)O)cc1OC"
assayed_target = "RPMI-8226"
category_label = "inactive"


Please examine the following record next.
Per the assay record, what outcome was assigned to COc1cc2c(c(OC)c1OC)-c1ccc(SC)c(=O)cc1[C@@H](NC(=O)c1ccc(F)cc1)CC2 ?
active
